Dear all, I have gathered published IC50 values for UniProtKB P12931; the list follows.
outcome.measure: IC50

[[record]]
compound = "C=CC(=O)N1CCC(N2CC(C#Cc3c(-c4ccc(Oc5ccccc5)c(OC)n4)c4c(N)ncnc4n3C)C2)CC1CO (stereo not drawn)"
outcome_measure = "IC50"
observed_measurement = "10 to 1000 nM"

[[record]]
compound = "C=CC(=O)N1CCC(N2CCC(C#Cc3c(-c4ccc(Oc5ccccc5)cc4)c4c(N)ncnc4n3C)C2)CC1 (stereo not drawn)"
outcome_measure = "IC50"
observed_measurement = "10 to 1000 nM"

[[record]]
compound = "NC(=O)c1cccc(-c2cnc3[nH]cc(C(=O)c4cccc(O)c4F)c3c2)c1"
outcome_measure = "IC50"
observed_measurement = "≤ 10000 nM"

[[record]]
compound = "CN1CCN(c2ccc(Nc3ncc4[nH]c(=O)c(=O)n(C5CCCC5)c4n3)cc2)CC1"
outcome_measure = "IC50"
observed_measurement = "4350 nM"

[[record]]
compound = "C=CC(=O)N1CC[C@@H](N2CC(C#Cc3c(-c4ccc(OC)c(OC)c4)c4c(N)ncnc4n3C)C2)[C@@H](O)C1"
outcome_measure = "IC50"
observed_measurement = "10 to 1000 nM"

[[record]]
compound = "CS(=O)(=O)NCCNC(=O)c1nc2nc(Nc3ccc(N4CCOCC4)cc3)ncc2cc1-c1ccccc1C(F)(F)F"
outcome_measure = "IC50"
observed_measurement = "0.5 to 5 nM"

[[record]]
compound = "CCCn1cc(-c2ccnc(Nc3cccc(S(N)(=O)=O)c3)n2)c2nc(Cl)cc(C)c21"
outcome_measure = "IC50"
observed_measurement = "> 10000 nM"

[[record]]
compound = "COc1cc(Nc2ncnc(-n3ccc4ccc(Cl)cc43)n2)cc(OC)c1OC"
outcome_measure = "IC50"
observed_measurement = "> 10900 nM"

[[record]]
compound = "NCC1CCCn2cc(c3ccccc32)C2=C(C(=O)NC2=O)c2cn(c3ccccc23)CC1 (stereo not drawn)"
outcome_measure = "IC50"
observed_measurement = "72000 nM"

[[record]]
compound = "CS(=O)(=O)c1cccc(Nc2ncc3cc(-c4ccccc4Br)c(C(N)=O)nc3n2)c1"
outcome_measure = "IC50"
observed_measurement = "16.6 nM"

[[record]]
compound = "C=CS(=O)(=O)N1CCC(C#Cc2c(-c3ccc(Oc4ccccc4)cc3)c3c(N)ncnc3n2C(C)C)CC1"
outcome_measure = "IC50"
observed_measurement = "≤ 10 nM"

[[record]]
compound = "O=C(Nc1cnc2[nH]c(-c3ccccc3)nc2c1)c1ccccc1Cl"
outcome_measure = "IC50"
observed_measurement = "21 nM"

[[record]]
compound = "COc1cc(Nc2ncnc(-n3c(Nc4ccc(C)cc4)nc4ccccc43)n2)cc(OC)c1OC"
outcome_measure = "IC50"
observed_measurement = "> 9310 nM"

[[record]]
compound = "Cc1nc2cc(Nc3nccc(Oc4ccc(NC(=O)Nc5cc(C(C)(C)C)nn5-c5ccc(OCCN6CCOCC6)cc5)c5ccccc45)n3)ccc2[nH]1"
outcome_measure = "IC50"
observed_measurement = "< 1 nM"

[[record]]
compound = "C=CC(=O)NC1CC(C#Cc2c(-c3ccc(Oc4ccccc4)cc3)c3c(N)ncnc3n2C2CCOC2)C1 (stereo not drawn)"
outcome_measure = "IC50"
observed_measurement = "10 to 1000 nM"

